Target: T1, His-tagged PEX5 (1–113) (UniProt P50542 1-113)
T1 construct: cytosolic peroxisomal targeting protein PEX5, stretch of the intrinsically disordered N-terminal domain, residues 1-113; His-tagged samples were made with the pETM10 vector; also called hPEX5 (1–113); source: E. coli BL21 (DE3), purified (Ni-NTA, SEC); not shown: His6, N-terminal, kept
Assay: solution-phase LSPR peak shift of nanoparticles (UV–vis); binding curve near equilibrium: PEX14 (16–80) titrated onto hPEX5 construct (0.015 μM) immobilised on nanobiosensors (~0.025 nM); 20 mM sodium phosphate, 100 mM NaCl, 0.025 wt % Tween 20, pH 7.9; fit with the Hill–Waud equation
Details: both partners purified
endpointLabel: pKd
pKd is defined as minus the log10 of a concentration measured in mol/L.

Query: What does the data say about its pKd? Entry: PEX14 (16–80) (domain or fragment, UniProt O75381 16-80, looked up, peroxisomal membrane-associated import protein PEX14, globular N-terminal domain, residues 16-80; also called globular N-terminal domain of PEX14; source: E. coli BL21 (DE3), purified (Ni-NTA, TEV cleavage, reverse Ni column, SEC); not shown: His6, N-terminal, cleaved) TPGSENVLPREPLIATAVKFLQNSRVRQSPLATRRAFLKKKGLTDEEIDMAFQQSGTAADEPSSL
Result: 6.54
